- assayComment: Steady-state plasma pharmacokinetics of intravenous polymyxin B in adult patients (LC-MS/MS, ADAPT 5 compartment fitting)
- Type: in vivo
- runParameters: human, one-compartment model, 13 adult patients, i.v. every 12 h, median, read-out: best-fit elimination half-life (median) (converted)
Positions of bridges follow the written chain, without caps; N, C: chain ends. Non-standard residues stand in square brackets, D forms with d. Residues, ends and D or L forms follow the SMILES beside them. *: point of attachment. X1 = CC[C@H](C)CCCCC(=O)*; Dab = NCC[C@H](N)C(=O)O
attributeMeasured: half-life
Answer with the value and then the unit.

Provide only the value of recorded half-life for CC[C@H](C)CCCCC(=O)N[C@@H](CCN)C(=O)N[C@H](C(=O)N[C@@H](CCN)C(=O)N[C@H]1CCNC(=O)[C@H]([C@@H](C)O)NC(=O)[C@H](CCN)NC(=O)[C@H](CCN)NC(=O)[C@H](CC(C)C)NC(=O)[C@@H](Cc2ccccc2)NC(=O)[C@H](CCN)NC1=O)[C@@H](C)O [polymyxin B] (X1-[Dab]T[Dab][Dab][Dab][dF]L[Dab][Dab]T; lactam 4-C)
6.8 h
